tested on: KMS-12-BM; assay: Cell viability, CellTiterGlo, 72 hours; assay type: cell-based; settings: Homo sapiens, KMS-12-BM cells, Blood
ENDPOINT: IC50 (µM)

COMPOUND | NUMERIC VALUE
O=C(NC1CCN(CCCCC2(C(=O)NCC(F)(F)F)c3ccccc3-c3ccccc32)CC1)c1ccccc1-c1ccc(C(F)(F)F)cc1 [lomitapide] | 3.5

====

system: OCI-AML3; assay: Cell viability, CellTiterGlo, 72 hours; assay type: cell-based; conditions: Homo sapiens, OCI-AML-3, OCI-AML3 cells, Blood
pIC50: −log10 of the molar value.

COMPOUND | TARGET | pIC50
O=C(NC1CCN(CCCCC2(C(=O)NCC(F)(F)F)c3ccccc3-c3ccccc32)CC1)c1ccccc1-c1ccc(C(F)(F)F)cc1 [lomitapide] | OCI-AML3 | 5.68
